study.system: human PRMT1 (Homo sapiens, UniProt Q99873)
Construct: GST-tagged PRMT1; made in house; host or cells: High Five insect cells (baculovirus, pFastBac1)
Sequence (Q99873 with tags, fused parts or gaps): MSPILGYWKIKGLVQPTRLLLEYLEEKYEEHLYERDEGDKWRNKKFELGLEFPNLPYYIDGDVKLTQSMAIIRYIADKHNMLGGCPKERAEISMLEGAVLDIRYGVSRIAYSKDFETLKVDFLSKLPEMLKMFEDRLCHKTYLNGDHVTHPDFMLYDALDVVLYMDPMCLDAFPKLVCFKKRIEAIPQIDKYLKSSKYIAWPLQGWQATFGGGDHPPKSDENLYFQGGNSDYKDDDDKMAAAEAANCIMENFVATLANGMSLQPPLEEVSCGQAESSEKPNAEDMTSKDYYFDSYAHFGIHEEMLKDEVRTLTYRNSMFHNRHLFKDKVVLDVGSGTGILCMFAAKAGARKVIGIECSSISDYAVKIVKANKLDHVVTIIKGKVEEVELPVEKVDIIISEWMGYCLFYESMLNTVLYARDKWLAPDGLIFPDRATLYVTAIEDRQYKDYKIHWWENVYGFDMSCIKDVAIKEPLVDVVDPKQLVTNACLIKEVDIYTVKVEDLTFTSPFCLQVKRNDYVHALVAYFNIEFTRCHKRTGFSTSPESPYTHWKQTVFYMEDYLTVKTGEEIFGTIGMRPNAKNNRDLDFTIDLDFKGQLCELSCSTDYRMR
method.notes: PRMT1 Biochemical Assay
assay.conditions: peptide substrate, 3H-SAM Flashplate assay; read-out: PRMT1 IC50
Below: a set of entries, each annotated with reported IC50.

{"columns": ["compound", "IC50"],
 "data": [
  ["COCCCOc1cc(-c2n[nH]cc2CN(C)CCN)cc(C(F)(F)F)c1Cl", "39.1 nM"],
  ["CNCCN(C)Cc1c[nH]nc1-c1cc(OCCOC)cc(OC(F)(F)F)c1", "26.7 nM"],
  ["CNCCN(C)Cc1c[nH]nc1-c1ccc(OCCOc2cccc(OCCN3CCOCC3)c2)cc1", "4.91 nM"],
  ["CNCCN(C)Cc1c[nH]nc1-c1ccc(OCCOc2ccc(OCCC(O)CO)cc2)cc1 (centres unmarked)", "7.59 nM"],
  ["CNCCN(C)Cc1c[nH]nc1-c1ccc(N2CC3CCCC3C2)nc1 (centres unmarked)", "11.9 nM"],
  ["CNCCN(C)Cc1ccnn1-c1ccc(COC)cc1", "9.25 nM"],
  ["CNCCN(C)Cc1c[nH]nc1-c1ccc(S(C)(=O)=O)cc1", "24.7 nM"],
  ["CNCCN(C)Cc1c[nH]nc1-c1ccc2oc(C(C)C)nc2c1", "19.9 nM"],
  ["CNCCN(C)Cc1c[nH]nc1-c1ccc(OCCOc2ccc(C)cc2)cc1", "8.9 nM"],
  ["CNCCN(C)Cc1c[nH]nc1-c1cc(F)c(OC2COC2)c(C(F)(F)F)c1", "6.47 nM"],
  ["CNCCN(C)Cc1c[nH]nc1-c1cc(F)c(OCC2CCC2)c(C(F)(F)F)c1", "4.58 nM"],
  ["CNCCN(C)Cc1c[nH]nc1-c1ccc(N2CCCCC2)nc1", "14.2 nM"],
  ["CNCCN(C)Cc1c[nH]nc1-c1ccc(OCCOc2ccc(N3CCOCC3)cc2)cc1", "7.64 nM"],
  ["CNCCN(C)Cc1c[nH]nc1-c1ccc(OCCOc2cccc(C)c2)cc1", "4.3 nM"]
]}

* * *

Below: a set of entries, each annotated with reported IC50.
study.system: human PRMT1 (Homo sapiens, UniProt Q99873)
Construct: GST-tagged PRMT1; made in house; host or cells: High Five insect cells (baculovirus, pFastBac1)
method.notes: PRMT1 Biochemical Assay
assay.conditions: peptide substrate, 3H-SAM Flashplate assay; read-out: PRMT1 IC50
Description: S-adenosylmethionine (SAM), S-adenosylhomocysteine (SAH), bicine, Tween20, dimethylsulfoxide (DMSO), bovine skin gelatin (BSG), and Tris(2-carboxyethyl)phosphine hydrochloride solution (TCEP) were purchased from Sigma-Aldrich at the highest level of purity possible. ^3H-SAM was purchase from American Radiolabeled Chemicals with a specific activity of 80 Ci/mmol. 384-well streptavidin Flashplates were purchased from PerkinElmer. […]
endpoint.name: IC50 (µM)

{"columns": ["compound", "study.system", "recorded.number"],
 "data": [
  ["CNCCN(C)Cc1c[nH]nc1-c1cc(C(=O)NCCOC)cc(C(F)(F)F)c1", "human PRMT1 (Homo sapiens, UniProt Q99873)", 0.0309],
  ["CNCCN(C)Cc1c[nH]nc1-c1ccc(OCCCOC)c(OCC2CCOC2)c1 (stereo not drawn)", "human PRMT1 (Homo sapiens, UniProt Q99873)", 0.0148],
  ["CNCCN(C)Cc1c[nH]nc1-c1ccc(O[C@H]2C[C@H](OCCC3CCOCC3)C2)cc1 [Compound 155, bis(2,2,2-trifluoroacetate)]", "human PRMT1 (Homo sapiens, UniProt Q99873)", 0.119]
]}
